# measurement-setup: human gut metagenome, 24 h, 2 µM; also: call rule not given here
measured-attribute: Bacterial Biotransformation

CC[C@H](C)C(=O)O[C@H]1C[C@@H](C)C=C2C=C[C@H](C)[C@H](CC[C@@H]3C[C@@H](O)CC(=O)O3)[C@H]21 [LOVASTATIN]	Compound NOT metabolized
COc1c2occc2cc2ccc(=O)oc12 [METHOXSALEN]	Compound metabolized
Nc1c2c(nc3ccccc13)CCCC2 [TACRINE]	Compound NOT metabolized
CS(=O)(=O)O.O.O.O.O=C1Cc2cc(CCN3CCN(c4nsc5ccccc45)CC3)c(Cl)cc2N1 [ZIPRASIDONE MESYLATE]	Compound metabolized
